Hi there, I'd appreciate the recorded pIC50 for every entry that follows.
# Test system: KB
# Test: In vitro cytotoxicity against KB (human epidermoid carcinoma of the nasopharynx)
# Format: functional, cell-based
On this scale, pIC50 is minus log10 of a concentration expressed in M (mol/L).

Exercise: Given the entry CC[C@@]1(OC(=O)COc2ccc(F)cc2)C(=O)OCc2c1cc1n(c2=O)Cc2cc3cc(OC(=O)COc4ccc(F)cc4)ccc3nc2-1 , report its measured pIC50.
Key: 7.26

Exercise: Give its pIC50 value. Item: CC[C@@]1(O)C(=O)OCc2c1cc1n(c2=O)Cc2cc3cc(OC(=O)COc4ccc(OC)cc4)ccc3nc2-1
Key: 7.33

Exercise: For the compound CC[C@@]1(O)C(=O)OCc2c1cc1n(c2=O)Cc2c-1nc1ccccc1c2COC(=O)Cc1cc(OC)c(OC)c(OC)c1 , what pIC50 is on record?
Key: 7.44

Exercise: Which pIC50 value is on record for CC[C@@]1(O)C(=O)OCc2c1cc1n(c2=O)Cc2cc3cc(OC(=O)COc4ccc(F)cc4)ccc3nc2-1 ?
Key: 7.28

Exercise: Using the record for CC[C@@]1(OC(=O)COc2ccc(OC)cc2)C(=O)OCc2c1cc1n(c2=O)Cc2c-1nc1ccccc1c2COC(=O)COc1ccc(OC)cc1 , report its pIC50.
Key: 6.51

Exercise: Returns the measured pIC50 for the input compound. Input: CC[C@@]1(O)C(=O)OCc2c1cc1n(c2=O)Cc2c-1nc1ccccc1c2COC(=O)COc1ccc(F)cc1
Key: 8.15

Exercise: Look at this compound and give its reported pIC50. CC[C@@]1(O)C(=O)OCc2c1cc1n(c2=O)Cc2cc3ccccc3nc2-1 [CAMPTOTHECIN]
Key: 8.05

Exercise: # query: pIC50 of entry CC[C@@]1(OC(=O)COc2ccc(F)cc2)C(=O)OCc2c1cc1n(c2=O)Cc2c-1nc1ccccc1c2COC(=O)COc1ccc(F)cc1
Key: 7.14

Exercise: What does the record list as pIC50 for CC[C@@]1(OC(=O)COc2ccc(OC)cc2)C(=O)OCc2c1cc1n(c2=O)Cc2cc3cc(OC(=O)COc4ccc(OC)cc4)ccc3nc2-1 ?
Key: 7.16

Exercise: pIC50 lookup needed for CC[C@@]1(OC(=O)COc2ccc(C#N)c(F)c2)C(=O)OCc2c1cc1n(c2=O)Cc2c-1nc1ccccc1c2COC(=O)COc1ccc(C#N)c(F)c1 , thanks.
Key: 8.05

Exercise: Dear colleague, I am looking for the recorded pIC50 of the following compound: CC[C@@]1(OC(=O)Cc2cc(OC)c(OC)c(OC)c2)C(=O)OCc2c1cc1n(c2=O)Cc2c-1nc1ccccc1c2COC(=O)Cc1cc(OC)c(OC)c(OC)c1
Key: 7.11

Exercise: Dear colleague, I am looking for the recorded pIC50 of the following compound: CC[C@@]1(O)C(=O)OCc2c1cc1n(c2=O)Cc2c-1nc1ccccc1c2COC(=O)COc1ccc(OC)cc1
Key: 8.10
